molecular target: Neu5Ac(a2-6)Gal(b1-4)GlcNAc(b1-2)[Neu5Ac(a2-6)Gal(b1-4)GlcNAc(b1-4)]Man(a1-3)[GlcNAc(b1-4)][Neu5Ac(a2-6)Gal(b1-4)GlcNAc(b1-2)[Neu5Ac(a2-6)Gal(b1-4)GlcNAc(b1-6)]Man(a1-6)]Man(b1-4)GlcNAc(b1-4)GlcNAc; test: glycan array binding signal (z-score within array); higher = stronger binding; conditions: glycan notation: IUPAC condensed, linker removed
Shown is part of a subset that was picked to be rich in the strongest signals.
Assign class by glycan array binding signal (z-score): not lower than -0.07 means YES; lower than -0.07 means NO.

Fm1D (Escherichia coli) (protein) FSCNVDGGSSIGAGTTSVYVNLDPVIQPGQNLVVDLSQHISCWNDYGGWYDTDHINLVQGSAFAGSLQSYKGSLYWNNVTYPFPLTTNTNVLDIGDKTPMPLPLKLYITPVGAAGGVVIKAGEVIARIHMYKIATLGSGNPRNFTWNIISNNSVVMPTHHHHHH ... NO
SSP1 (Sclerotinia sclerotiorum), XP_001584968 (protein) MGSSHHHHHHSSGLVPRGSHMSLLTTELACTSAPDQVLHLFFQDGQNILEARSPDGGNVWTTQDTIIAKDGDYNGSSMTCYYVDKDANFDNQPSIHLLYMNKDKQLTEKVKRMKGDNPIWEDAKVPDEVRKGPEQYSKLTSGSFNQGTGWNPNGSQWAYFSASKDGKMGIVEIRRTPKDPWHTETILEEKWGDELPGTALACVIGNGKIRVFLQHHDYSIILYENQNNTWHDRGTFIPKDKVQATTPLACTMTKDGSVHLFYVSKSNKIIHCTDGKKEEELINFFPGSKLGATSVENKITLFFRNLNPVNEVGTLENENGSWKHGTTVIPA ... YES

Entry Epa6 (Candida glabrata), Q6DTM7_CANGB (protein) MGSSHHHHHHSSGLVPRGSHMKDDYSSSLSNNNLGWTDPTEFPLGCSPNVTTPKNGLSMELYSYDYLKSGSNPCWDAAYLDPNYPRTGYKSHRLLAKVENVAGNINFYYHAPMGCTSLFDTLPQAYNYRTPLTMTNFTMLLYGYFKPKVTGYHTFTISADDLLFVNFGAGNAFDCCKRESSADDFGNYQAYAVWGSQTAKDDLTVHLDAGLYYPIRIFFNNRDNDGALSLTLKTESDPNPVIDFSDYFYSFDDTKDGCPGLVSYDTS : is its glycan array binding signal (z-score) no less than -0.07? NO

Test whether the binder BIp1-His (Cryptococcus neoformans) (protein) MFTKIFVALFAATAVLSAPVESAEKRITHTGRATFYSPSVGIGACGWQNTDEELVVALNAPQYALNADHNCGQSVRITNEQNGNQEIAKVVDLCPGCNDGDLDMSPALFGALNNNDFDQGVFPISWNFLPRDDTSSSN records glycan array binding signal (z-score) of -0.07 or higher. YES

Does glycan array binding signal (z-score) meet or surpass -0.07 for Epa7 (Candida glabrata), Q6DTM6_CANGB (protein) MGSSHHHHHHSSGLVPRGSHMKDDYSSFLSNNNLGWTDPTEFPLGCSPNVTTPKNGLSMELYSYDLRKNGSYPCWDAAYLDPNYPRTGYKSHRLLAKVDGVTGNINFYYHATKGCTPEIDHLPASYNYPKPLTMTNFTMLLYGYFKPKVTGYHTFTISADDLLFVNFGAGNAFDCCKRESSADDFGNYQAYAVWGSQTAKDDLTVHLDAGLYYPIRIFFNNREYDAELSLTLKTESDSNPVIDFSDYFYSFDDTKDGCPGLVSYDTS ? NO
